B1: tRNA (parent)
chain: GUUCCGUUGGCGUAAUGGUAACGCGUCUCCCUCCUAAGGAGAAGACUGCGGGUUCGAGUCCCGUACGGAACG

variants of: B1; experiment: yeast fitness relative to wild type (ratio to wild type); higher = fitter; tRNA-Arg(CCU), competitive growth, 37 C, YPD
This sample holds only a part of the variants without activity.
Attribute: yeast fitness
Simply state the number, no unit and no words.

The examples below pair each entry with its known result.
>  <mutationKey>
C5A A15G G25A

>  <readoutType>
yeast fitness

>  <recordedMeasurement>
0.583

$$$$
>  <mutationKey>
C27U C30A A69U

>  <readoutType>
yeast fitness

>  <recordedMeasurement>
0.585

$$$$
>  <mutationKey>
G17U C24U

>  <readoutType>
yeast fitness

>  <recordedMeasurement>
0.84

$$$$

G17C G56C has a reported yeast fitness of 0.633

U35G C62G has a reported yeast fitness of 0.597
